# STUDY SYSTEM: human DLL3 endogenously expressed on SHP77 and NCI-H82 cells (human) (UniProt Q9NYJ7)
# Sequence (Q9NYJ7 27-618): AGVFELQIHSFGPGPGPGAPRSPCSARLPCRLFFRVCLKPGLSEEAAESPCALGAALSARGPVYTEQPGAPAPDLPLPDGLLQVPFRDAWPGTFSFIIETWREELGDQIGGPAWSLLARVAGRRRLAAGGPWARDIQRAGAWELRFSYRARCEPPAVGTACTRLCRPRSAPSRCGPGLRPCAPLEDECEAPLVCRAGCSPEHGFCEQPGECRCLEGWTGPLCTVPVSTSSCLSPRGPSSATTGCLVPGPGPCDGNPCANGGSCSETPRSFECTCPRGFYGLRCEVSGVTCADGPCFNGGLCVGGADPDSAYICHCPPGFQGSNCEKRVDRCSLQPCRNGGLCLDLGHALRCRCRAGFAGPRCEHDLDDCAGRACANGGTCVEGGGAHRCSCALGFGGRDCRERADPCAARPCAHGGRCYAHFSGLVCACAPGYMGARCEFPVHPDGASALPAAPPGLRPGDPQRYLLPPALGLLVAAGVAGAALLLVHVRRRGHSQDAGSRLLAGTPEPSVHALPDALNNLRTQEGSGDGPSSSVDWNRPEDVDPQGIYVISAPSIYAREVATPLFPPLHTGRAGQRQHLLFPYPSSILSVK
# METHOD NOTES: FACS SHP77 cells, 0.00128 nM
Documented MFI across a set of binders
Entry rule: numbers only, all in MFI.

| BINDER | VALUE UNIT | MFI |
| --- | --- | --- |
| mab016 scFv-hFc (Fc fusion, not shown: small tags and cut ends; a dimerising Fc or GST) scFv (part 1 of 2): DIVMTQSQKFMSTTIGDRVSITCKASQNVGTTVAWYQQKPGQSPNLLLYSTSNRFTGVPDRFTGSGSGTDFTLTITNMQSEDLADYFCQQYNNYPLTFGGGTKLEIK scFv (part 2 of 2): EVNLEESGGGLVQPGGSMKLSCVASGFAFSNFWMQWVRQSPEKGLEWVAQIRLKSDNYAAHYAESVKGRFTISRDDSKSSVYLQLNNLRAEDTGTYYCTQGNWVGFAYWGQGTLVTVSA | MFI | 96 |

Recorded result, mab003 scFv-hFc (Fc fusion, part only; not given: VL-VH linker and human IgG1 Fc, not shown: another chain or arm of the molecule; a dimerising Fc or GST; small tags and cut ends) scFv (part 1 of 2): DVQITQSPSYLAASPGETITINCRASKSISKYLAWYQEKPGKTNKLLIYSGSTLHSGIPSRFSGSGSGTDFTLTISSLEPEDFAIYYCQQHNEYPLTFGGGTKLELK scFv (part 2 of 2): QVQLQQSGTELMKPGASVKLSCKATGYTFTGNWIEWVKQRPGHGLEWIGEILPGTGSTQYNEKFKGKATFTADPSSNTAYMQLSSLTTEDSAIYYCARWGSTVVAYDYWGQGTTLTVSS , MFI: 182

Recorded result, mab006 scFv-hFc (Fc fusion, not shown: small tags and cut ends; a dimerising Fc or GST) scFv (part 1 of 2): DVQITQSPSYLAASPGETITINCRATKSISKYLAWYQEKPGKTNKLLIFSGSTLQSGIPSRFRGSGSGTDFTLTISSLEPEDFAMYYCQQHHEYPYTFGGGTKLEIK scFv (part 2 of 2): QVQLQQPGAELVRPGTSVKLSCKASGYTFTSYWMHWVRQRPGQGLEWIGVIDPSDSLANYNQEFKGKATLTVDTSSSTAYMQLSSLTSEDSAVYYCARDSTVVAPMDYWGQGTSVTVSS , MFI: 112
